measured.on: Sensor protein VraS (Staphylococcus aureus (strain N315), UniProt Q99SZ7)
Sequence (Q99SZ7 whole entry): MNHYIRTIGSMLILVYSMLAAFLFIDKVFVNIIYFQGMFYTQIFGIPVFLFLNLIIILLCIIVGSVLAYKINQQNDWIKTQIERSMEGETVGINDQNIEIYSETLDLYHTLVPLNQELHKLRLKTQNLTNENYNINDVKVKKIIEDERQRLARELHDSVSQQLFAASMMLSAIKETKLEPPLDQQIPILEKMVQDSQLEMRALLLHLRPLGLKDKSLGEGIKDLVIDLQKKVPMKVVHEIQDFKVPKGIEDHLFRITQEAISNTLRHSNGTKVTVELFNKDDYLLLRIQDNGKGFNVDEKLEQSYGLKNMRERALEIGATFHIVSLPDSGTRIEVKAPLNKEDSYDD
measurement.protocol: Inhibition of GST tagged VraS ATPase activity in vancomycin-intermediate resistant Staphylococcus aureus by kinase-coupled assay
experimental.endpoint: pIC50
Please express pIC50 as -log10 of the molar concentration.

Measured on Sensor protein VraS (Staphylococcus aureus (strain N315), UniProt Q99SZ7), CCSc1nc2ccc(NC(=O)NC(c3cc(C)ccn3)C3CC3)cc2o1 (stereo unspecified) has a documented pIC50 of 6.03
